System: S. aureus ATCC BAA-44 (MRSA SCCmec type I)
method: MIC, broth dilution
Format: cell-based, Staphylococcus aureus
conditions: Table 5; STIP3 variants, highest concentration 100 μg/mL
Procedure: MIC determination. MICs were measured using peptides with 95% purity. For bacterial studies, cation-adjusted Mueller Hinton (MH) broth was used as the growth medium whereas Yeast Peptone Dextrose (YPD; 10 g/L yeast extract, 20 g/L peptone, 20 g/L dextrose) was used for Candida spp. and other yeast. […] Determination of minimum inhibitory concentrations. The MICs were measured for bioactive peptides identified from the initial screen. […]
Ends that are not written are not given here.
# MIC S. aureus ATCC BAA 44 (I) per entry
Please give a number only; it is taken to be in µg/mL.

Name the recorded MIC S. aureus ATCC BAA 44 (I) of the sequence listed here: TVGGLVKWILDVVKKFA [STIP3-9, TVGGLVKWILDVVKKFA]
25

Give recorded MIC S. aureus ATCC BAA 44 (I). TVGGLVKWILDTFKKFA [STIP3-11, TVGGLVKWILDTFKKFA]
100

Identify measured MIC S. aureus ATCC BAA 44 (I) associated with TVRALVKWILRTVAKFA [STIP3-20, TVRALVKWILRTVAKFA]
25

Identify measured MIC S. aureus ATCC BAA 44 (I) corresponding to TVGGLVKWILDTVKKFA [STIP3-1, TVGGLVKWILDTVKKFA]
100

With those in mind, consider the next sequence.
For the sequence TVGGLVKWILKAVKKFA [STIP3-13, TVGGLVKWILKAVKKFA] , give its reported MIC S. aureus ATCC BAA 44 (I).
25

Value source: patent US12370235B2
